# Test description: chemical genetic growth profiling, strain panel (AID 1159580);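 further: tested at 20 µM; growth read once vehicle control cultures reached saturation at 30 °C; 1 = growth at the plate median or of vehicle wells; lower values mean less growth of the strain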
# Study conditions: S. cerevisiae deletion strains, growth OD, locus YOR069W, strain VPS5, hits give low values
Hit rate of the full screen: of about 5,500 compounds, about 2,000 (36%) were called active. About 18% were inconclusive and are not listed. Some of the results follow.
normalized growth values by entry
Readout label: normalized growth

CC(=O)O[C@H]1CC[C@]2(C)C3CC[C@@]4(C)C(CC5O[C@@]6(CCC(C)CO6)[C@@H](C)C54)C3CC[C@@H]2C1 (stereo partly drawn)	0.983
O=C(CCBr)N1CCN(C(=O)CCBr)CC1	1.01
CC(=O)O[C@H]1CC[C@]2(C)C3CC(=O)[C@]4(C)C(C(C)=O)=CCC4C3CC[C@H]2C1 (stereo partly drawn)	0.997
CC(=O)OCC(=O)[C@@]1(O)CCC2C3CC[C@@H]4C[C@H](OC(C)=O)CC[C@]4(C)C3C(=O)C[C@@]21C (stereo partly drawn)	0.996
Cc1onc(-c2ccccc2)c1C(=O)NC1C(=O)N2[C@@H]1SC(C)(C)[C@@H]2C(=O)O (stereo partly drawn)	1.01
CC1(C)S[C@@H]2[C@H](NC(=O)Cc3ccccc3)C(=O)N2[C@H]1C(=O)O	0.998
Cc1onc(-c2c(Cl)cccc2Cl)c1C(=O)N[C@@H]1C(=O)N2[C@@H]1SC(C)(C)[C@@H]2C(=O)O	1.02
COc1cccc(OC)c1C(=O)N[C@@H]1C(=O)N2[C@@H]1SC(C)(C)[C@@H]2C(=O)O	0.999
